- test-summary: log P value (octanol:water)
- Type: physicochemical
- condition-details: water/n-octanol
# binarize log P: threshold 4 inclusive, high side class 1, low side class 0

As a guide, the following entries are already answered.
1) C=CC(C)CCCC(C)(C)O (stereo not shown) [DIHYDROMYRCENOL] :: class 0
2) CCC(C)(O)CCCC(C)C (stereo not shown) [TETRAHYDROLINALOOL] :: class 0
3) CCCCCC/C(C=O)=C\c1ccccc1 :: class 1
4) O=Cc1ccc2c(c1)OCO2 :: class 0
5) O=C1CCCCCCCCCCCC(=O)OCCO1 :: class 1

Please look at the following molecule next.
Could you tell me if the measured log P of `CCCC(=O)OC(C)(C)Cc1ccccc1` reaches 4 or more? class 1
